# test-system: NADPH oxidase 5 (Homo sapiens) (UniProt Q96PH1)
# Sequence (Q96PH1 whole entry, looked up): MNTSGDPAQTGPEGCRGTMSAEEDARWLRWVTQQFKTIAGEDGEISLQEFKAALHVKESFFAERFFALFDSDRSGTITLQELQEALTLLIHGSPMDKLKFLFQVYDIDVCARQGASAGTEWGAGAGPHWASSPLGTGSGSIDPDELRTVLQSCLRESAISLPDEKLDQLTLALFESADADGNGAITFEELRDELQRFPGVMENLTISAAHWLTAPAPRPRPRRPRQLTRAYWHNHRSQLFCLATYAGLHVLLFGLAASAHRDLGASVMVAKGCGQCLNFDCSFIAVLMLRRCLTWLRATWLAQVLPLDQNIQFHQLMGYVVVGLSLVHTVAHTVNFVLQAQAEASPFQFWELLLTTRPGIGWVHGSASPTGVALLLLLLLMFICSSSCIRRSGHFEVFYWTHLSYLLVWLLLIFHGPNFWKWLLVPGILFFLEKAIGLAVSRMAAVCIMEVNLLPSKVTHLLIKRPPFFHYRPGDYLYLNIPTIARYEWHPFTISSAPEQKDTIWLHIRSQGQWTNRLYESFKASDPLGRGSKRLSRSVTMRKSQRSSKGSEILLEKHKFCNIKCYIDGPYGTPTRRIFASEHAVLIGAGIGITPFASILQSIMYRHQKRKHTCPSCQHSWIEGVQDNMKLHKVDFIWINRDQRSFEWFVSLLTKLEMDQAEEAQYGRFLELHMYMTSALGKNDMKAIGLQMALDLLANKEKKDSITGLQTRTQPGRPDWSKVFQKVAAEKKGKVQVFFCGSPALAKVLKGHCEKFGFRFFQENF
# experiment: NOX5-dependent H2O2 signal modulators, primary screen, NOX inhibitor project, cell-based, HEK293-NOX5, Amplex Red fluorescence (AID 1161)
# setup-conditions: HEK293-NOX5, ionomycin, 45 min, higher = more signal
Would you kindly list z-score for each of these molecules?
Answers are plain numbers.

>>> number("CCOC(=O)[C@H](CC(C)C)NC(=O)CCC1CC(OC(=O)NCCc2ccc(F)cc2)CC2(CCCC(COC(=O)NCCCN3CCCC3=O)O2)O1 (stereo not given in full)")
0.802

Respectfully, I request z-score for each entry included below.
1. O=C1C[C@H](c2ccccc2)[C@H](c2ccc(Br)cc2)O1
2. COc1cccc([C@H](O)Cn2cc(-c3ccc(CON=C(C)C)cc3)nn2)c1
3. CO[C@@H]1COC(=O)[C@H](COCc2ccccc2)NC(=O)CC=C[C@@H](C)[C@H](OC)COC(=O)[C@@H](C)NC(=O)CC=C[C@H]1C
4. CN1CCc2nc(-c3ccccc3)c(-c3ccccc3)cc2C1
5. CC(CCN1CCCc2nc(C)c(C)cc21)=NOC[C@@H](O)COCc1ccco1
6. COC(=O)[C@H](C)NC(=O)CCC1CC(OC(=O)NCc2ccc3c(c2)OCO3)CC2(CCCC(COC(=O)NCc3ccccc3)O2)O1 (stereo not given in full)

Reply:
1: -0.446; 2: -0.169; 3: 0.436; 4: -0.409; 5: -0.144; 6: 0.654

---

# Tested on: Noggin (protein binding on small-molecule microarray)
# experiment: Noggin binders on small-molecule microarray, primary screen, biochemical, 635/667 nm fluorescence (AID 1095);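 further: score merges 667 nm feature fluorescence with signal to noise over triplicate slides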
# setup-conditions: 635 nm fluorescence, higher = more signal
Categories are defined by ranges of composite z-score, namely low bracket (below 0.3), middle bracket (0.3 to below 0.6), high bracket (0.6 or more)

Worked set:
>>> classification("COC(=O)[C@H](C)NC(=O)CCC1CC(OC(=O)NCCc2ccc(F)cc2)CC2(CCCC(COC(=O)NCCc3ccccc3OC)O2)O1 (stereo not given in full)")
"middle bracket"
>>> classification("C#CCCCON=C1C[C@@H](O)[C@@H](O)[C@@H]2[C@@H]3C(=O)N(C4CCCCC4)C(=O)[C@@H]3CC[C@@H]12")
"middle bracket"
>>> classification("CC(CCN1CCCCc2nc(C)c(C)cc21)=NO[C@@H](C)c1cc(-c2c(C)cc(C)cc2C)no1")
"low bracket"

Task item: # bin lookup: classify `CC(=O)OC[C@H]1O[C@H](CC=NOC[C@@H](O)[C@H]2O[C@@H]3OC(C)(C)O[C@@H]3[C@H]2O)C=C[C@@H]1OC(C)=O` by its composite z-score
Reply: middle bracket

Task item: # bin lookup: classify `O=C1[C@H]2[C@H]3[C@H](O)[C@H](O)CC(=NOCc4ccccc4)[C@H]3CC[C@H]2C(=O)N1C1CCCCC1` by its composite z-score
Reply: middle bracket

Task item: # bin lookup: classify CCOC(=O)[C@H](Cc1ccccc1)NC(=O)CCC1CC(OC(=O)NCc2ccc3c(c2)OCO3)CC2(CCCC(COC(=O)NCCOc3ccccc3)O2)O1 (stereo not given in full) by its composite z-score
Reply: middle bracket

Task item: # bin lookup: classify `CC(=O)OC[C@H]1O[C@H](C#CCCc2ccccc2)C=C[C@@H]1OC(C)=O` by its composite z-score
Reply: middle bracket

Task item: # bin lookup: classify `COc1ccc(COC(=O)NN=C2C[C@@H](O)[C@@H](O)[C@@H]3[C@@H]4C(=O)N(Cc5ccc6c(c5)OCO6)C(=O)[C@@H]4CC[C@H]23)cc1` by its composite z-score
Reply: low bracket

Task item: # bin lookup: classify CCOC(=O)[C@H](CC(C)C)NC(=O)CCC1CC(OC(=O)NCCc2ccc(F)cc2)CC2(CCCC(COC(=O)NCCCN3CCCC3=O)O2)O1 (stereo not given in full) by its composite z-score
Reply: low bracket

---

# experiment: RPMI8226 myeloma cell viability, profiling panel, resazurin fluorescence, basal, 24 h, PK04 Diversity Set (AID 1180);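 further: RPMI8826 multiple myeloma cell line at 5000 cells per well; test concentration not given here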
# setup-conditions: higher = more signal
Returns one of yes or no; yes when z-score is >= 0.7.

Worked set:
>>> classification("O=C(NN=C1C[C@@H](O)[C@@H](O)[C@@H]2[C@@H]3C(=O)N(c4ccc(F)cc4F)C(=O)[C@@H]3CC[C@H]12)OCc1ccccc1")
"yes"
>>> classification("CC(C)CON=C1C[C@@H](O)[C@@H](O)[C@@H]2[C@@H]3C(=O)N(Cc4ccccc4)C(=O)[C@@H]3CC[C@H]12")
"yes"
>>> classification("C[C@@H]1CC[C@H]2C(=O)O[C@@H](COc3ccc(C(C)(C)C)cc3)CN2[C@H]1c1ccc(Br)cc1")
"yes"
>>> classification("CC(=O)OC[C@H]1O[C@@H](ON=C(C)C)[C@H](OC(C)=O)[C@@H](OC(C)=O)[C@@H]1OC(C)=O")
"no"
>>> classification("COc1ccc(O[C@H]2C=C[C@@H](c3ccccc3)O[C@@H]2CON=C(C)CCN2CCCc3nc(C)c(C)cc32)cc1")
"no"
>>> classification("COC(=O)CC=C[C@@H](C)[C@@H](C=NOC[C@@H](C)[C@H](OCc1ccccc1)C(C)C)NS(=O)(=O)c1ccc(C)cc1")
"no"

Task item: Could you verify whether the entry CC1(C)O[C@H]2OC([C@H](O)CON3C(=O)c4ccccc4C3=O)[C@H](O)[C@H]2O1 (some centres not stated) shows z-score of no less than 0.7?
Reply: no

---

# Tested on: Sam68 (KHDRBS1)
# experiment: Sam68 small-molecule binders, primary screen, biochemical, small-molecule microarray, 635 nm fluorescence (AID 1125);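 further: score merges 667 nm channel intensity with signal to noise over triplicate slides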
# setup-conditions: small-molecule microarray binding, higher = more signal
Returns one of true or false; true when composite z-score is >= 0.3.

Worked set:
>>> classification("CC(=O)OC[C@H]1O[C@H](CCON=C(C)C)C=C[C@@H]1OC(C)=O")
"false"
>>> classification("COC(=O)[C@H](C)NC(=O)CCC1CC(OC(=O)NCCc2ccc(F)cc2)CC2(CCCC(COC(=O)NCCc3ccccc3OC)O2)O1 (stereo partly drawn)")
"true"
>>> classification("CC(C)=NO[C@H](C)c1cn([C@@H]2COC[C@H]2O)nn1")
"true"
>>> classification("CON=C[C@@H](OC)[C@H](C)C=CCC(=O)OC")
"false"
>>> classification("COc1ccc(OC[C@@H](CO)OC)cc1")
"false"

Task item: Could you verify whether the entry `CCCNC(=O)OC[C@H]1O[C@H](CCON=C[C@@H](NS(=O)(=O)c2ccc(C)cc2)[C@H](C)C=CCC(=O)OC)C=C[C@@H]1Oc1ccc(OC)cc1` shows composite z-score of no less than 0.3?
Reply: false

Task item: Could you verify whether the entry CCOC(=O)[C@H](CC(C)C)NC(=O)CCC1CC(OC(=O)NCc2ccc3c(c2)OCO3)CC2(CCCC(COC(=O)NCCOC)O2)O1 (stereo partly drawn) shows composite z-score of no less than 0.3?
Reply: true

Task item: Could you verify whether the entry CCOC(=O)[C@H](Cc1ccccc1)NC(=O)CCC1CC(OC(=O)NCCc2ccc(F)cc2)CC2(CCCC(COC(=O)NCCC(C)C)O2)O1 (stereo partly drawn) shows composite z-score of no less than 0.3?
Reply: true

---

# test-system: Carbonic anhydrase 2 (Homo sapiens)
# experiment: CAII small-molecule binders, profiling panel, biochemical, small-molecule microarray, Alexa647-labelled CAII (AID 1122)
# setup-conditions: CAII-A647 binding fluorescence, higher = more signal
property-label: composite z-score
One number for each entry.

Solved entries (count: 3):
>>> number("C[C@@H]1CC[C@H]2C(=O)O[C@@H](COc3ccc(C(C)(C)C)cc3)CN2[C@H]1c1ccc(Br)cc1")
-0.0795
>>> number("CCN1C(=O)[C@H]2[C@H]3[C@H](O)[C@H](O)CC(=NO[C@H](C)c4cn([C@H](CO)Cc5ccccc5)nn4)[C@@H]3CC[C@H]2C1=O")
0.412
>>> number("COC(=O)[C@H](C)NC(=O)CCC1CC(OC(=O)NCc2ccc3c(c2)OCO3)CC2(CCCC(COC(=O)NCc3ccccc3)O2)O1 (some centres undefined)")
0.192

Turning now to a further compound:
Task item: Provide only the value of recorded composite z-score for `CCN1C(=O)[C@H]2[C@H]3[C@H](O)[C@H](O)CC(=NOC[C@@H](O)COCc4ccco4)[C@H]3CC[C@H]2C1=O`
Reply: 0.093

---

# test-system: NADPH oxidase 5 (Homo sapiens)
# experiment: NOX5-dependent H2O2 signal modulators, primary screen, NOX inhibitor project, cell-based, HEK293-NOX5, Amplex Red fluorescence (AID 1161)
# setup-conditions: HEK293-NOX5, ionomycin, 45 min, higher = more signal
property-label: z-score

>>> result("C[C@H]1CC[C@H]2C(=O)O[C@H](CO)CN2[C@@H]1c1ccc(Br)cc1")
-0.489
>>> result("CC(CCN1CCCc2nc(C)c(C)cc21)=NO[C@@H](C)c1cn([C@H](CO)Cc2ccccc2)nn1")
0.351
>>> result("COC(=O)[C@@H]1CC[C@H](C)[C@@H](c2ccc(C)cc2)N1C(=O)c1ccc(C=NO[C@@H](C)c2cc(-c3c(C)cc(C)cc3C)no2)cc1")
0.406
>>> result("CCN1C(=O)[C@H]2[C@H]3[C@H](O)[C@H](O)CC(=NOC(C)CN4CCCc5nc(C)c(C)cc54)[C@@H]3CC[C@H]2C1=O (stereo not given in full)")
-0.298
>>> result("COC(=O)[C@@H]1CC[C@H](C)[C@@H](c2ccc(C)cc2)N1C(=O)c1ccc(C=NOC[C@@H](O)[C@H]2O[C@@H]3OC(C)(C)O[C@@H]3[C@H]2O)cc1")
0.417

Respectfully, I request z-score for each entry included below.
1. CC1(C)O[C@H]2OC([C@H](O)CON3C(=O)c4ccccc4C3=O)[C@H](O)[C@H]2O1 (stereo not given in full)
2. COc1ccc(COC(=O)NN=C2C[C@@H](O)[C@@H](O)[C@@H]3[C@@H]4C(=O)N([C@@H](C)c5ccccc5)C(=O)[C@@H]4CC[C@H]23)cc1

Reply:
1. 0.145
2. -0.419

Respectfully, I request z-score for each entry included below.
1. CC(CCC(=O)OC[C@H]1O[C@H](C#Cc2ccccc2)C=C[C@@H]1Oc1ccc(C)cc1)=NOC[C@@H](C)[C@H](OCc1ccccc1)C(C)C
2. CC(=O)OC[C@H]1O[C@H](C#CCC2CCCCC2)C=C[C@@H]1OC(C)=O
3. C[C@@H]1CC[C@H]2C(=O)O[C@@H](COc3ccc(C(C)(C)C)cc3)CN2[C@H]1c1ccc(Br)cc1
4. CC=CC1=C(CO)[C@H](O)[C@H]2O[C@H]2[C@@H]1O
5. CCN1C(=O)[C@H]2[C@H]3[C@H](O)[C@H](O)CC(=NOCC(C)C)[C@H]3CC[C@H]2C1=O
6. O=C(NCCC[N+]1=CC=NC1c1ccccc1)N1CCCc2nc(-c3ccc(Br)cc3)ccc21 (stereo not given)
7. CO[C@@H]1COC(=O)CC=C[C@H](C)[C@H](OC)COC(=O)[C@@H]2CCCN2C(=O)CC=C[C@H]1C
8. C[C@@H]1C=CCC(=O)OC[C@H](C)C(=O)N[C@@H](Cc2ccccc2)C(=O)OC1

Reply:
[0.919, 1.74, 0.257, 0.109, -0.231, -1.64, 0.294, -0.396]
